Tested on: Raji
MEASUREMENT PROTOCOL: Inhibition of TPA-induced EBV-early antigen activation in human Raji cells at 1000 molar ratio after 48 hrs relative to TPA
Type: cell-based
Set-up: scale not given: the % may be the effect or the level left
EXPERIMENTAL CONTEXT: human gammaherpesvirus 4
Overview of recorded Activity for various compounds
Output spec: scalar in %, unitless text.

COMPOUND | TEST READOUT | UNIT SYMBOL | REPORTED
CC1=C(/C=C/C(C)=C/C=C/C(C)=C/C=C/C=C(C)/C=C/C=C(C)/C=C/C2=C(C)CCCC2(C)C)C(C)(C)CCC1 | Activity | % | 8.6
CC(C)=CCC/C(C)=C/CC/C(C)=C/CC/C=C(\C)CC[C@@H]1C(C)=CC[C@H](O)C1(C)C | Activity | % | 20.1
C=C(CC[C@H](C)[C@@H]1CC[C@]2(C)C3=C(CC[C@@]12C)[C@@]1(C)CC[C@H](O)C(C)(C)[C@@H]1CC3)C(C)C | Activity | % | 0

For reference, reported Activity for CC(C)=CCC[C@@H](C)[C@@H]1CC[C@]2(C)C3=C(CC[C@@]12C)[C@@]1(C)CC[C@H](O)C(C)(C)[C@@H]1CC3 stands at 0

For reference, reported Activity for CC(C)=CCC[C@@H](C)[C@@H]1CC[C@]2(C)C3=CC[C@H]4C(C)(C)[C@@H](O)CC[C@]4(C)C3=CC[C@@]12C [ANTIQUOL C] stands at 0

For reference, reported Activity for CC(C)=CCC[C@@H](C)[C@@H]1CC[C@]2(C)[C@H]3CCC(=C(C)C)[C@@H](CCCO)[C@]3(C)CC[C@@]12C stands at 0

For reference, reported Activity for CC(C)=CCC[C@]1(C)CC[C@]2(C)C3=CC[C@H]4C(C)(C)[C@@H](O)CC[C@]4(C)[C@H]3CC[C@@]2(C)C1 stands at 2.2
